FYI, the data here is from paper PMC8201479.

Biological target: LIN28–let-7 interaction (Homo sapiens)
Construct: Purified LIN28A (residues 16–187) was incubated at a concentration of 200 nM; His-tag (cleaved yes); made in house; host or cells: Escherichia coli BL21(DE3)
Sequence (Q9H9Z2 16-187): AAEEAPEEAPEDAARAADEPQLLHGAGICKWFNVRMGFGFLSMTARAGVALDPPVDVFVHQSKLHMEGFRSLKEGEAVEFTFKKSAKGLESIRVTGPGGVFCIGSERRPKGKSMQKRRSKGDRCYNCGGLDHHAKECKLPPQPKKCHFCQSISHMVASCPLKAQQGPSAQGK
Test: Fluorescence polarization (FP) assay, LIN28A (residues 16–187) and FAM-labeled preE-let-7f-1
Format: binding
Settings: Table 1; quadruplicate; starting from a maximum concentration of 60 μM, eight concentrations; read-out: IC50, LIN28–let-7 inhibitory activity
attribute_measured: IC50 (µM)

{"compound": "O=C(O)c1ccc(C2C(C(=O)c3ccccc3)=C(O)C(=O)N2c2ccc(C(=O)O)c(O)c2)cc1 (stereo not shown)", "attribute_measured": "IC50", "unit_symbol": "µM", "recorded_number": 16}
{"compound": "COc1ccc(C(=O)C2=C(O)C(=O)N(c3ccc(O)c(C(=O)O)c3)C2c2ccc(-c3nccs3)cc2)cc1OC (stereo not shown)", "attribute_measured": "IC50", "unit_symbol": "µM", "recorded_number": 12}
{"compound": "O=C(C1=C(O)C(=O)N(c2ccc(O)c(C(=O)O)c2)C1c1ccc(-c2nccs2)cc1)c1ccco1 (stereo not shown)", "attribute_measured": "IC50", "unit_symbol": "µM", "recorded_number": 5}
{"compound": "O=C(C1=C(O)C(=O)N(c2ccc(O)c(C(=O)O)c2)C1c1ccc(-c2nccs2)cc1)c1ccc(Br)cc1 (stereo not shown)", "attribute_measured": "IC50", "unit_symbol": "µM", "recorded_number": 5}

I = O=C(O)c1ccc(C2C(C(=O)c3ccccc3)=C(O)C(=O)N2c2ccc(O)c(C(=O)O)c2)cc1 (stereo not shown)
II = O=C(C1=C(O)C(=O)N(c2ccc(O)c(C(=O)O)c2)C1c1ccc(-c2nccs2)cc1)c1ccccc1 (stereo not shown)
III = O=C(C1=C(O)C(=O)N(c2ccc(O)c([N+](=O)[O-])c2)C1c1ccc(-c2nccs2)cc1)c1ccccc1 (stereo not shown)
Put the compounds in ascending order of IC50. Returns: the labels arranged in the requested order.
I, II, III
(I: 6 µM, II: 12 µM, III: 41 µM)
